# Tested on: HL-60(TB) leukemia
# protocol text: NCI tumour cell line growth inhibition, 48 h
Measured TGI by item
readout kind: TGI

[[record]]
molecule = "Cc1[nH]c(=O)[nH]c(=O)c1/C=C/C(=O)NC(CO)CC(C)C (centres undefined)"
readout_kind = "TGI"
val = "> 375 µM"

[[record]]
molecule = "Nc1cc(Cl)cc2cc(Cl)cnc12"
readout_kind = "TGI"
val = "> 100 µM"

[[record]]
molecule = "CCc1[nH]c(=O)nc(N)c1-c1ccc(N2CCCCC2)c([N+](=O)[O-])c1"
readout_kind = "TGI"
val = "> 100 µM"

[[record]]
molecule = "Cc1ccc(S(=O)(=O)n2c(-c3ccccc3)c(-c3ccccc3)c3ccccc32)cc1"
readout_kind = "TGI"
val = "> 100 µM"

[[record]]
molecule = "COC(=O)c1ccccc1/C=C1\\Cc2c(ccc3c2CCC3)C1=O"
readout_kind = "TGI"
val = "> 100 µM"

[[record]]
molecule = "Cc1ccc(S(=O)(=O)NC(=O)NCc2ccc(S(N)(=O)=O)cc2)cc1"
readout_kind = "TGI"
val = "> 100 µM"

[[record]]
molecule = "C1C2CC3CC1CC(c1nn4c(C56CC7CC(CC(C7)C5)C6)nnc4s1)(C2)C3"
readout_kind = "TGI"
val = "> 100 µM"

[[record]]
molecule = "CCS(=O)(=O)c1ccc(OC)c(Nc2ncc(-c3cccc(OC)c3)o2)c1"
readout_kind = "TGI"
val = "> 25 µM"

[[record]]
molecule = "O=C1c2ccccc2-c2c1c1ccccc1c(=O)n2Cc1ccccc1"
readout_kind = "TGI"
val = "> 100 µM"

